- Study system: Fibroblast growth factor 22 (Homo sapiens)
- Assay text: FGF22 melting temperature shift by ligands – biophysical, thermal shift, cherry-pick retest, FGF22 synaptogenesis inhibitor project, dose response (AID 720646)
- Condition description: recombinant FGF22 thermal shift, SYPRO orange fluorescence; series mostly up to 38 µM
Out of some 1,000 compounds screened, about 25 (2%) were called active. A selection follows.
Reported endpoint: outcome

Observe how each entry below is paired with its result.
O=C(N/N=C/c1ccc(Cl)c(Cl)c1)c1ccc2nc[nH]c2c1 = inactive
CCn1ccnc1CN(C)C(=O)c1ccc2nc(Cc3ccc(OC)cc3)oc2c1 = inactive
COc1ccc(-c2cc(=O)oc3cc(OCC(=O)N[C@@H](Cc4c[nH]c5ccccc45)C(=O)O)ccc23)cc1 = inactive
CN1C(=O)c2cccc3c(N)ccc(c23)C1=O = inactive

Req: Can you look up the measured outcome of `NS(=O)(=O)c1cccc(NC(=O)COC(=O)c2cc([N+](=O)[O-])ccc2N2CCCC2)c1` for me?
Resp: inactive

Req: Can you look up the measured outcome of `C[C@@H]1CN([C@@H](C)CO)S(=O)(=O)c2ccc(-c3ccncc3)cc2O[C@@H]1CN(C)C(=O)Nc1ccc(F)cc1` for me?
Resp: inactive

Req: Can you look up the measured outcome of `C[C@H]1CN([C@@H](C)CO)S(=O)(=O)c2ccc(C3=CCCC3)cc2O[C@H]1CN(C)C(=O)Nc1ccc2c(c1)OCO2` for me?
Resp: inactive
